Items are presented alongside their recorded IC50.
# TESTED_SYSTEM: Tie2 (Homo sapiens)
# Sequence (Q02763 770-1124 limits assumed): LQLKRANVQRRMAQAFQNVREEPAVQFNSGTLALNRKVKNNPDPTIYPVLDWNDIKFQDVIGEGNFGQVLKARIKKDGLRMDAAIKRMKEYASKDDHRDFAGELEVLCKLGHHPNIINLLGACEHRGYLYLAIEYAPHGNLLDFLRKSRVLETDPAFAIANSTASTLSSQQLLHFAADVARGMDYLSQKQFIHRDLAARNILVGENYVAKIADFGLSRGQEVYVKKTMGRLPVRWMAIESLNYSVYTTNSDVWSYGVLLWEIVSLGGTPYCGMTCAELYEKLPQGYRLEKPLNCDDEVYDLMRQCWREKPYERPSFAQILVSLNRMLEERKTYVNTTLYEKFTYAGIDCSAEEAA
# ASSAY_NAME: Tie-2-Kinase HTRF-Assay without kinase preactivation (assay 2)
# Format: biochemical
# Parameters: fusion protein of GST and the intracellular domains of Tie-2; GST; made in house; host or cells: insect cells (Hi-5)
# CONDITION_DESCRIPTION: GST-Tie-2 without preactivation, 10 μM ATP; pIC50 = -log IC50 molar

Take a look at these entries with their results.
>>> experimental_result("Cc1cccc(NC(=O)Nc2ccc(-c3cc(C(C)(C)C)nc4[nH]ncc34)cc2)c1 [1.11]")
"501 to 1000 nM"
>>> experimental_result("CN1CCN(Cc2ccc(NC(=O)Nc3ccc(-c4ccnc5c4cnn5C)cc3)cc2C(F)(F)F)CC1 [1.24]")
"< 501 nM"
>>> experimental_result("Cn1ncc2c(-c3ccc(NC(=O)Nc4cccc(C(F)(F)F)c4)cc3)cc(CN3CCOCC3)nc21 [3.2]")
"< 501 nM"
>>> experimental_result("CC(C)c1cc(-c2ccc(NC(=O)Nc3cccc(C(F)(F)F)c3)cc2)c2cnn(CCCN3CCOCC3)c2n1 [1.25]")
"1000 to 10000 nM"
>>> experimental_result("Cc1ccc(F)c(NC(=O)Nc2ccc(-c3cc(CN4CCOCC4)nc4c3cnn4C)cc2)c1 [3.5]")
"< 501 nM"
>>> experimental_result("Cn1ncc2c(-c3ccc(NC(=O)Nc4cccc(C(F)(F)F)c4)cc3)cc(C3(C(=O)N4CCCC4)CC3)nc21 [1.27]")
"< 501 nM"
>>> experimental_result("Cc1ccc(F)c(NC(=O)Nc2ccc(-c3ccnc4c3cnn4C)cc2)c1 [1.7]")
"< 501 nM"

// molecule COc1ccc(C(F)(F)F)cc1NC(=O)Nc1ccc(-c2cc(C)nc3c2cnn3C)cc1 [2.7] , assay Tie2 (Homo sapiens), IC50 value: < 501 nM
